- System: E. coli (ATCC 10798)
- ASSAY REMARKS: Sensitization to novobiocin (concentration lowering the MIC of novobiocin), E. coli (ATCC 10798)
- Assay type: cell-based, Escherichia coli
- STATED CONDITIONS: Table 9; Escherichia coli (ATCC 10798)
- Procedure: Alternatively, “fractional inhibitory concentration (FIC)” is also useful for determination of synergy between the compounds of the invention, or the compounds in combination with known antibiotics. […] The FIC is calculated by looking at the impact of one antibiotic on the MIC of the other and vice versa. […] As used herein, FIC can be determined as follows: […] The MICs of erythromycin and novobiocin against E. coli (ATCC 10798) at 70 and >500 μg/mL were measured.
Parameter threshold = 0.2. Response is Met when FIC values with novobiocin meets or exceeds it, else Not met.

compound="CC(O)[C@H]1CC[C@H]2[C@@H]3[C@H](OCCCN)C[C@@H]4C[C@H](OCCCN)CC[C@]4(C)[C@H]3C[C@H](OCCCN)[C@]12C (some centres unmarked)" experimental_target="E. coli (ATCC 10798)" category=Met
compound=COCCC[C@@H](C)[C@H]1CC[C@H]2[C@@H]3[C@H](OCCCN)C[C@@H]4C[C@H](OCCCN)CC[C@]4(C)[C@H]3C[C@H](OCCCN)[C@]12C experimental_target="E. coli (ATCC 10798)" category="Not met"
compound=C[C@H](CCCO)[C@H]1CC[C@H]2[C@@H]3[C@H](OCCCN)C[C@@H]4C[C@H](OCCCN)CC[C@]4(C)[C@H]3C[C@H](OCCCN)[C@]12C experimental_target="E. coli (ATCC 10798)" category="Not met"
compound=C[C@H](CCO)[C@H]1CC[C@H]2[C@@H]3[C@H](OCCCN)C[C@@H]4C[C@H](OCCCN)CC[C@]4(C)[C@H]3C[C@H](OCCCN)[C@]12C experimental_target="E. coli (ATCC 10798)" category=Met
compound=C[C@H](CO)[C@H]1CC[C@H]2[C@@H]3[C@H](OCCCN)C[C@@H]4C[C@H](OCCCN)CC[C@]4(C)[C@H]3C[C@H](OCCCN)[C@]12C experimental_target="E. coli (ATCC 10798)" category="Not met"
